B1: SNAP91 (parent)
chain: FGGSFMAPSPSPVTPAQNNLLQPN

- Variants of: B1
- measurement description: protein stability index of a GFP-peptide fusion (GPS, HEK-293T) (PSI 1-6); higher = more stable;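 note: lentivirally expressed fusions sorted by FACS into six bins by GFP to DsRed ratio, PSI derived from sequencing read proportions per bin multiplied by bin number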
- assay setup: c terminus: a fixed tail appended
experimental endpoint: protein stability index
// keep it numeric: no unit symbol after the value

A selection of reference data follows.
# sequence string, protein stability index
data = [
    ("FGGSFMAPSPSAVTPAQNNLLQPN", 2),
    ("FGGSFMAPSPSPVTTAQNNLLQPN", 2.01),
]

Note protein stability index for the variant shown: FGGSFMAPSPSPVTLAQNNLLQPN
1.95
